Molecular target: EPHA5 (human) (UniProt P54756)
Sequence (P54756 whole entry, looked up): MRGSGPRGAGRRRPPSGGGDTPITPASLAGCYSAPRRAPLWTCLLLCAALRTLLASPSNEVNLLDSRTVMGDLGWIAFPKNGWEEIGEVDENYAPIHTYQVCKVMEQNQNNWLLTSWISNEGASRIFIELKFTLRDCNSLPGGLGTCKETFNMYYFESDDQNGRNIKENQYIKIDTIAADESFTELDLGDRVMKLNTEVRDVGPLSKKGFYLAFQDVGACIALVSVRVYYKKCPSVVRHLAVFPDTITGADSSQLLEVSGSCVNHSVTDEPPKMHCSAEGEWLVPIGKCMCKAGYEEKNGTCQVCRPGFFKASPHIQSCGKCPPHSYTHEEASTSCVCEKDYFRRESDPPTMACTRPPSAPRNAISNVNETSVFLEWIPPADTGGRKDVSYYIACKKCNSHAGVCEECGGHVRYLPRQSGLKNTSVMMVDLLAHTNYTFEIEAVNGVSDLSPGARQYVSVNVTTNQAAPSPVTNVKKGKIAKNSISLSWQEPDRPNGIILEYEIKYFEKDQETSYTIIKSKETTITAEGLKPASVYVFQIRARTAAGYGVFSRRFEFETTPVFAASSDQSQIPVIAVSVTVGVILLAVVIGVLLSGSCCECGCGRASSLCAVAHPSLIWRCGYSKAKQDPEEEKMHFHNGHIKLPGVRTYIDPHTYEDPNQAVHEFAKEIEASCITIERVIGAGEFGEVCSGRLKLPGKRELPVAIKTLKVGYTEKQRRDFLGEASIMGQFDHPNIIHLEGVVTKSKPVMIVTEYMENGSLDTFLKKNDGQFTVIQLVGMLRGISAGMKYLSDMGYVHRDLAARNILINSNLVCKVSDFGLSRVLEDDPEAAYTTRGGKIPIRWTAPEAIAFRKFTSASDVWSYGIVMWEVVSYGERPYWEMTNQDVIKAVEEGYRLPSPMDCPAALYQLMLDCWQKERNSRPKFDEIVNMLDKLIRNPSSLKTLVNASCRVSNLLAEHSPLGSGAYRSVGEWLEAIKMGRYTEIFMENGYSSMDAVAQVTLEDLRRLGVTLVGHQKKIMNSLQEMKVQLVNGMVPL
Assay: radiometric filter-binding kinase assay, Kinase HotSpot
Details: compound 0.5 µM; ATP 10 µM
# residual activity listing for each entry below

Molecule | residual activity
O=c1c(-c2ccc(F)cc2)c(-c2ccncc2)[nH]n1-c1ccc(Cl)cc1 | 106%
Nc1ncnc2c1cnn2-c1ccccc1 | 95.6%
O=c1cc(N2CCOCC2)oc2c(-c3ccccc3)cccc12 | 113%
O=C1NC(=O)c2c1c1c3ccccc3[nH]c1c1[nH]c3cc(Br)ccc3c21 | 90.5%

----------
Target: STK24 (human) (UniProt Q9Y6E0)
Sequence (Q9Y6E0 whole entry, looked up): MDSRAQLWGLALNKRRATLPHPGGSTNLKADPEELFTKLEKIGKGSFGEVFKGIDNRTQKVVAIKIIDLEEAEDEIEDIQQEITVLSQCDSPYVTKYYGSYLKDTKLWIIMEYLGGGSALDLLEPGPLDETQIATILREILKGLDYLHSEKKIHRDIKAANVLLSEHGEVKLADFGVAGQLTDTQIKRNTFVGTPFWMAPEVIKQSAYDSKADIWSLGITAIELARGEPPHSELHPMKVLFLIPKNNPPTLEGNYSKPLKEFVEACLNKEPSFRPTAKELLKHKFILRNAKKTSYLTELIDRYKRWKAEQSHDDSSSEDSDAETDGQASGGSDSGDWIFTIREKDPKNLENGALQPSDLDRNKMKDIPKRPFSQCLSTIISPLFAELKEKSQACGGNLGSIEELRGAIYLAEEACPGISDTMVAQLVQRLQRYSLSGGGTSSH
Experiment: radiometric filter-binding kinase assay, Kinase HotSpot
Conditions: compound 0.5 µM; ATP 10 µM

Molecule | Unit info | residual activity
N#CCCc1ccc2c(c1)-c1[nH]c3ccc([N+](=O)[O-])cc3c1CC(=O)N2 | % | 57.7
O=C(c1ccccc1)c1ccc(N2CCOCC2)cc1O | % | 89
O=c1c2ccccc2[nH]c(=S)n1CCN1CCC(=C(c2ccc(F)cc2)c2ccc(F)cc2)CC1 | % | 93.4
COc1cc2ncnc(Nc3ccc(O)c(Br)c3)c2cc1OC | % | 91.7
CCCCc1c(-c2ccc(O)cc2)[nH]c2nccnc12 | % | 83.6
COc1cc2c(N3CCN(C(=O)Nc4ccc(OC(C)C)cc4)CC3)ncnc2cc1OCCCN1CCCCC1 | % | 102
O=S(=O)(NCCNC/C=C/c1ccc(Br)cc1)c1cccc2cnccc12 | % | 72
Cc1cc(Nc2nc(-c3ccccc3)nc3ccccc23)n[nH]1 | % | 66
Nc1ncnc2c1cnn2-c1ccccc1 | % | 96.3
FC(F)(F)c1ccc(/C=C/c2nc(COc3ccc(CCCCn4ccnn4)cc3)co2)cc1 | % | 101
COc1cccc(-c2cc(=O)c3ccccc3o2)c1N | % | 108

----------
Target: FLT3 (human) (UniProt P36888)
Sequence (P36888 whole entry, looked up): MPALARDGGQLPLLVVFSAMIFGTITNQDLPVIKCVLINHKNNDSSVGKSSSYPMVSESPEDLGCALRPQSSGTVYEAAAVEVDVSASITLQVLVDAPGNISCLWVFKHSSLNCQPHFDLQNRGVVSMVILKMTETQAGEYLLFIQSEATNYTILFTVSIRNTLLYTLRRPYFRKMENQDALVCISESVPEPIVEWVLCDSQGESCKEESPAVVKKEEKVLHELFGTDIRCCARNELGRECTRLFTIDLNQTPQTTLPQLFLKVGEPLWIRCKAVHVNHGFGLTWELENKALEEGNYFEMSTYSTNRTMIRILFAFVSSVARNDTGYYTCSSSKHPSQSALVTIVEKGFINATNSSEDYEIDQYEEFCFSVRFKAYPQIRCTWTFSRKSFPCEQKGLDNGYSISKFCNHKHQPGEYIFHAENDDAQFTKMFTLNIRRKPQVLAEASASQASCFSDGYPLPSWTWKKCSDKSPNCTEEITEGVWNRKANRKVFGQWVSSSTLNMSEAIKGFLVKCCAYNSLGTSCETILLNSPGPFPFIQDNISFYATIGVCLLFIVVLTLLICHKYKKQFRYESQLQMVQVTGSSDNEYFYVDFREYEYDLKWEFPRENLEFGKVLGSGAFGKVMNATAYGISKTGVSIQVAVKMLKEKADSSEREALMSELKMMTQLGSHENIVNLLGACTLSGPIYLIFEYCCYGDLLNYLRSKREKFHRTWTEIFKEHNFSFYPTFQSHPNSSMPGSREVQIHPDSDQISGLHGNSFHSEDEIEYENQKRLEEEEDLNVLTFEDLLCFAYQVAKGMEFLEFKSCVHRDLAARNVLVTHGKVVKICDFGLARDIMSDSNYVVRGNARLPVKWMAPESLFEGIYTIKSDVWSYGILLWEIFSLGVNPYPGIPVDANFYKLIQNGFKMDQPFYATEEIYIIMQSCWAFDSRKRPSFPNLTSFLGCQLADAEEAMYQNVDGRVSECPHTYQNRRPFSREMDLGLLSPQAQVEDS
Assay: radiometric filter-binding kinase assay, Kinase HotSpot
Conditions: compound 0.5 µM; ATP 10 µM
Quick rule for you: residual activity at 90% or higher means Criterion met, lower means Criterion not met.

Molecule | Label class
O=C(O)c1ccc2c3c1cccc3c(=O)n1c3ccccc3nc21 | Criterion not met
COc1cc2ncnc(Nc3ccc(O)c(Br)c3)c2cc1OC | Criterion not met
O=c1[nH]c2ccccc2n1C1CCN(Cc2ccc(-c3nc4cc5[nH]cnc5cc4nc3-c3ccccc3)cc2)CC1 | Criterion met
N#C/C(=C1/Nc2ccccc2S1)c1ccnc(NCCc2cccnc2)n1 | Criterion not met

----------
# residual activity listing for each entry below
Molecular target: MAP3K8 (human) (UniProt P41279)
Sequence (P41279 whole entry, looked up): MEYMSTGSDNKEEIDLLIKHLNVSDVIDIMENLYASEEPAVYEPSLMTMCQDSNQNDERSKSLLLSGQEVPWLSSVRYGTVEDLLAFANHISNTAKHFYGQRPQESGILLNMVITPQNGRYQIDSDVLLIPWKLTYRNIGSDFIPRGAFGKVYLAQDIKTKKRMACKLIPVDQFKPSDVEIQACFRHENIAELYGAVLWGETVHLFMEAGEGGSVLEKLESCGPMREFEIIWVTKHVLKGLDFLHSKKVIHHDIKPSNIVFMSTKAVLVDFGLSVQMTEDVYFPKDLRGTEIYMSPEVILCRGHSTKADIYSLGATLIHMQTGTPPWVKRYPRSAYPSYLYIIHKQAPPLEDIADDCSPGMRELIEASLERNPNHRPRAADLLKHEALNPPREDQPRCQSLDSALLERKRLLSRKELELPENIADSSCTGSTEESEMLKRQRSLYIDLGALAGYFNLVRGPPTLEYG
Assay: radiometric filter-binding kinase assay, Kinase HotSpot
Conditions: compound 0.5 µM; ATP 10 µM

Molecule | residual activity / %
Cn1cc(/C=C2\C(=O)Nc3ccc(S(N)(=O)=O)cc32)c2ccccc21 | 96.8
COc1cc2c(cc1OC)-c1[nH]nc(Nc3cccc(F)c3)c1C2 | 99.9
CCc1nc(-c2ccc(OC)cc2)[nH]c1-c1ccncc1 | 95
O=S(=O)(NCCNC/C=C/c1ccc(Br)cc1)c1cccc2cnccc12 | 99.4
COc1cc2c(N3CCN(C(=O)Nc4ccc(OC(C)C)cc4)CC3)ncnc2cc1OCCCN1CCCCC1 | 93.2
COc1cc2ncnc(Nc3ccc(O)c(Br)c3)c2cc1OC | 97.6
O=c1c(-c2ccc(F)cc2)c(-c2ccncc2)[nH]n1-c1ccc(Cl)cc1 | 87.1
Cc1cc(Nc2nc(-c3ccccc3)nc3ccccc23)n[nH]1 | 105
O=c1c2ccccc2[nH]c(=S)n1CCN1CCC(=C(c2ccc(F)cc2)c2ccc(F)cc2)CC1 | 100
O=C1NC(=O)c2cc(Nc3ccc(F)cc3)c(Nc3ccc(F)cc3)cc21 | 96.3
